- System: NCI-H460 lung
- method-description: NCI-60 one-dose screen, 48 h
- experimental-conditions: 10 µM unless noted
Compounds without any hit were thinned out: in the full panel of roughly 83,000, 20% have a hit. Calls of active or inactive are those of the source. How the source made its calls: active means growth percent below 10; inactive means the rest.
A correct response names exactly one class from true (1) for active, false (0) for inactive

molecule	tgt	assigned-category
O=C(NCN1C(=O)c2cccc3cccc(c23)C1=O)N1CCC(Cc2ccccc2)CC1	NCI-H460 lung	false (0)
C=C(C)[C@@H]1CC[C@]2(C(=O)NNC(=O)c3cccnc3)CC[C@]3(C)[C@H](CC[C@@H]4[C@@]5(C)CCCNC(C)(C)[C@@H]5CC[C@]43C)[C@@H]12	NCI-H460 lung	false (0)
CCN1CCN(C(=O)[C@@]2(C)CC[C@]3(C)CC[C@]4(C)C(=CC(=O)[C@@H]5[C@@]6(C)CC[C@H](OC7C[C@@H](O)[C@@H](O)C(C)O7)C(C)(C)[C@@H]6CC[C@]54C)[C@@H]3C2)CC1 (some centres undefined)	NCI-H460 lung	true (1)

Here's the next entry for you.
Write down the call the test reported for this molecule. Item: N=C(N)N=Nc1ccc(O)cc1 false (0)

----------
Listed next: entries and their corresponding growth.
- Test system: EKVX NSCLC
- method-description: NCI-60 one-dose screen, 48 h (100 = growth as untreated, 0 = no growth, -100 = all killed)
- experimental-conditions: 10 µM unless noted
This is part of a sample that, as a whole, favours compounds with a hit. Of some 83,000 tested, about 20% had one in any assay. The source made the active and inactive calls. The calls were made as follows: active = growth percent below 10; inactive = the rest.

What value of measured growth is listed for O=c1[nH]c2c3ccncc3cc(-c3cccc(Cl)c3)c2c2cnccc12 ? 74.8% (inactive)

Same read-out for COc1cccc(-c2nn(-c3ccccc3)cc2-c2ccnc(NCCNS(=O)(=O)c3cccc(F)c3)c2)c1 ? 44.6% (inactive)

Same read-out for COc1ccc2c(c1)C(Br)=C(CCO)C2c1ccccc1 (centres undefined) ? 75.8% (inactive)

Same read-out for C[C@@H]1CCCCCCCCC[C@H](O)C(=O)C[C@@H](SC[C@@H](O)C(=O)O)C(=O)O1 ? 105% (inactive)

Same read-out for CCCCCCCC(=O)SCC/C=C/[C@@H]1CC(=O)NCc2cccc(n2)CN(Cc2ccc3ccccc3c2)CC(=O)N[C@@H](C(C)C)C(=O)O1 ? 53.9% (inactive)

Same read-out for N#CC1=C(N)Oc2c(sc3c(F)cccc23)C1c1ccc(Cl)cc1 (centres undefined) ? 51.4% (inactive)

Same read-out for Cc1ccc2[nH]cc(-c3nc(-c4cn(C)c5ncccc45)cs3)c2c1 ? 59.5% (inactive)

Same read-out for Cn1c(/C(C#N)=C/c2ccc3ccccc3c2)cc2ccccc21 ? 37.4% (inactive)

Same read-out for COc1ccc2c(c1)c(-c1nc(-c3c[nH]c4ncccc34)cs1)cn2C ? 29.3% (inactive)

----------
- Test system: HS 578T breast
- method-description: NCI-60 one-dose screen, 48 h (100 = growth as untreated, 0 = no growth, -100 = all killed)
- experimental-conditions: 10 µM unless noted
Compounds without any hit were thinned out: in the full panel of roughly 83,000, 20% have a hit.
Listed next: entries and their corresponding growth.
A number alone suffices; assume %.

Record excerpt, results attached:
compound	scale-unit	reported-value
CCC(c1ccc(OC)cc1)C(CC)c1ccc(O)c(CN2CCCCC2)c1 (centres undefined)	%	79
CC(=O)O[C@H]1CC[C@]2(C)[C@H]3C(=O)C=C4[C@@H]5C[C@](C)(C(=O)N6CCCNCC6)CC[C@]5(C)CC[C@@]4(C)[C@]3(C)CC[C@H]2C1(C)C	%	96.2
Clc1ccc2[nH]cc(-c3nc(-c4c[nH]c5ncccc45)cs3)c2c1	%	75.7

--- query ---
What value of measured growth is listed for O=S(=O)(NCCNc1cc(-c2cn(-c3ccccc3)nc2-c2cccc(O)c2)ccn1)c1ccccc1 ? 45.2

----------
- System: HS 578T breast
- method-description: NCI-60 one-dose screen, 48 h
- experimental-conditions: 10 µM unless noted
Compounds without any hit were thinned out: in the full panel of roughly 83,000, 20% have a hit. Calls of active or inactive are those of the source. Rule for the calls: active = growth percent below 10; inactive = the rest.
A correct response names exactly one class from 1 (yes) = active, 0 (no) = inactive

molecule	tgt	assigned-category
CC(C)(C)c1cc(-n2c(-c3ccc(Cl)cc3)nc3cc(C(=O)Nc4ccc(Cl)cc4)ccc32)n[nH]1	HS 578T breast	0 (no)
C=C(C)[C@@H]1CC[C@]2(C(=O)N3CCN(C)CC3)CC[C@]3(C)[C@H](CC[C@@H]4[C@@]5(C)C/C(=C/c6ccc(C(F)(F)F)cc6)C(=O)C(C)(C)[C@@H]5CC[C@]43C)[C@@H]12	HS 578T breast	0 (no)
Brc1ccc2c(c1)c(-c1nc(-c3c[nH]c4ncccc34)cs1)cn2CCCN1CCCCC1	HS 578T breast	0 (no)
COc1cc(/C=C2\C(=O)N(CC(O)COc3cc(O)c4c(=O)cc(-c5ccccc5)oc4c3)c3ccccc32)cc(OC)c1O (configuration not stated)	HS 578T breast	0 (no)
Cn1c(=O)c2c(ncn2CC(=O)Nc2ccc(S(N)(=O)=O)cc2)n(C)c1=O	HS 578T breast	0 (no)
Cc1ccc2oc(=O)cc(-c3sc(N4CCCCC4)nc3-c3ccccc3)c2c1	HS 578T breast	0 (no)
COc1cc(OC)c2c(c1)c1nc3cc(C)c(C)cc3nc1n2CCN(C)C	HS 578T breast	0 (no)
C=C1C(=O)O[C@H]2[C@H]1CC/C(COC(=O)N[C@H](Cc1c[nH]c3ccccc13)C(=O)OC)=C\CC[C@@]1(C)O[C@@H]21	HS 578T breast	0 (no)
COC(=O)[C@@H]1[C@H]2C[C@H]3c4[nH]c5cc(OC)ccc5c4CCN3C[C@@H]2C[C@H](OC(=O)/C=C/c2ccnc(OC)c2)[C@H]1OC	HS 578T breast	0 (no)
O=C1C(=O)c2ccccc2C(O)=C1CCCc1ccc(C2CCCCC2)cc1	HS 578T breast	0 (no)

Write down the call the test reported for this molecule. Item: Nc1nc2c3ccncc3cc(-c3cccc(Cl)c3)c2c2cnccc12 0 (no)

Same read-out for Fc1cccc(-c2[nH]nc3nc(Nc4cccnc4)sc23)c1 ? 0 (no)

Same read-out for O=c1c(CNc2ccc(S(=O)(=O)Nc3ncccn3)cc2)coc2ccccc12 ? 0 (no)

Same read-out for COC(=O)[C@]12CC[C@@H](C)[C@H](C)[C@@H]1C1=CC[C@@H]3[C@@](C)(CC#N)C4=C(C[C@@]3(C)[C@]1(C)CC2)OC[C@]4(C)C=O ? 1 (yes)

Same read-out for OCC12CCCC(CO)(COC1)C2O (configuration not stated) ? 0 (no)

Same read-out for COc1cc2nc(Cl)nc(Nc3cccc(C(=O)/C=C/c4ccc(Cl)cc4)c3)c2cc1OC ? 0 (no)

Same read-out for Clc1ccc(Cn2cc(-c3nc4ccc(Br)nc4n3Cc3ccc(Cl)cc3)c3cccnc32)cc1 ? 0 (no)

----------
- System: DU-145 prostate
- method-description: NCI-60 one-dose screen, 48 h (100 = growth as untreated, 0 = no growth, -100 = all killed)
- experimental-conditions: 10 µM unless noted
Compounds without any hit were thinned out: in the full panel of roughly 83,000, 20% have a hit. Active and inactive are the calls of the source. The calls were made as follows: active = growth percent below 10; inactive = the rest.
Listed next: entries and their corresponding growth.

Record excerpt, results attached:
smiles-string	quantity	reported-value
Cc1ccc(-c2nc([P+](c3ccccc3)(c3ccccc3)c3ccccc3)c(N3CCOCC3)o2)cc1	growth	12.9% (inactive)
CCN(CC)CCCCCCNc1ccnc2cc(Cl)ccc12	growth	92.8% (inactive)

What value of measured growth is listed for COC1=C(Br)C(=O)C(OC)=C(Br)C1=O ? 109% (inactive)

Same read-out for CCCCC[C@H]1CC=C2C(=O)C(Cl)=C[C@@H]2CC=CCCCC(=O)O[C@@H](CCCCC)CC=C2C(=O)C(Cl)=C[C@@H]2CC=CCCCC(=O)O[C@@H](CCCCC)CC=C2C(=O)C(Cl)=C[C@@H]2CC=CCCCC(=O)O1 ? 59.9% [8 µM] (inactive)

Same read-out for CCCCn1c(-c2ccc(O)cc2)cn2c3c(=O)[nH]c(=O)n(C)c3nc12 ? 101% (inactive)

Same read-out for Cn1c2c(Cl)c(Cl)ccc2c2c(C#N)c[nH]c(=O)c21 ? 109% (inactive)

----------
- System: DU-145 prostate
- method-description: NCI-60 one-dose screen, 48 h
- experimental-conditions: 10 µM unless noted
This is part of a sample that, as a whole, favours compounds with a hit. Of some 83,000 tested, about 20% had one in any assay. Activity calls are given as the source filed them. The calls were made as follows: active = growth percent below 10; inactive = the rest.
A correct response names exactly one class from active, inactive

The following compounds have reported results that may help.
compound	assigned-category
COC(=O)[C@]12CC[C@@H](C)[C@H](C)[C@@H]1C1=CC[C@@H]3[C@@](C)(CC#N)C4=C(C[C@@]3(C)[C@]1(C)CC2)OC[C@]4(C)C=O	active
NC1=C(C/C(N)=N\O)C(c2ccccc2Cl)c2c(ccc3ccccc23)O1 (stereo not drawn)	inactive
CCCCC[C@H]1C/C=C2/C(=O)C(Cl)=C[C@@H]2C/C=C\CCCC(=O)O1	active
Cn1c(=O)c2c(nc(N3CCCC3)n2C)n(C)c1=O	inactive
NC(=O)[C@@H]1CC2CCC1C2 (stereo partly drawn)	inactive

Write down the call the test reported for this compound. Item: CN1CCN(c2nc(-c3csc(-c4cccs4)n3)cc3ccccc23)CC1 inactive

Same read-out for COc1ccc(-c2cc(-c3cccs3)n(N=O)c(=O)c2C#N)cc1 ? inactive
